# System: Candida albicans
# experiment.summary: Antifungal activity against Candida albicans at 1 mM by almar blue dye reduction assay
# Type: functional, organism-based
Active and inactive are the calls of the source. How the calls were made is not given here.
metric.name: Activity

[[record]]
molecule = "CCC(=O)OCC#Cc1cn([C@H](C)CC2CCC([C@@H](C)C(=O)N(CC)CC)O2)nn1 (single isomer, unassigned)"
result = "inactive"

[[record]]
molecule = "C[C@H](C[C@@H]1CC[C@H]([C@@H](C)C(=O)N(C)Cc2ccccc2)O1)n1cc(C#CCCCC#N)nn1"
result = "inactive"

[[record]]
molecule = "CCCCCC#Cc1cn([C@H](C)C[C@@H]2CC[C@H]([C@@H](C)C(=O)N3CCCC3)O2)nn1"
result = "inactive"

[[record]]
molecule = "COc1ccc(C#Cc2cn([C@H](C)C[C@@H]3CC[C@H]([C@@H](C)C(=O)N(C)Cc4ccccc4)O3)nn2)cc1"
result = "inactive"

[[record]]
molecule = "C[C@H](CC1CCC([C@@H](C)C(=O)N2CCN(CC3CCCO3)CC2)O1)n1cc(C#CCCCC#N)nn1 (single isomer, unassigned)"
result = "inactive"

[[record]]
molecule = "C[C@H](C[C@@H]1CC[C@H]([C@@H](C)C(=O)N(C)Cc2ccccc2)O1)n1cc(C#CCN(C)C)nn1"
result = "inactive"

[[record]]
molecule = "COCCNCC#Cc1cn([C@H](C)C[C@@H]2CC[C@H]([C@@H](C)C(=O)N3CCCC3)O2)nn1"
result = "inactive"


###

# Test system: Staphylococcus aureus
# experiment.summary: Antibacterial activity against Staphylococcus aureus at 1 mM by almar blue dye reduction assay
# Assay type: functional, organism-based
Calls of active or inactive are those of the source. No rule for the calls is given here.
metric.name: Activity

[[record]]
compound = "C[C@H](CC1CCC([C@@H](C)C(=O)N2CCCC2)O1)n1cc(C#CCCCC#N)nn1 (single isomer, unassigned)"
result = "inactive"

[[record]]
compound = "Cc1cccc(NC(=O)OCC#Cc2cn([C@H](C)CC3CCC([C@@H](C)C(=O)N4CCN(CC5CCCO5)CC4)O3)nn2)c1 (single isomer, unassigned)"
result = "inactive"

[[record]]
compound = "C[C@H](CC1CCC([C@@H](C)C(=O)N2CCN(CC3CCCO3)CC2)O1)n1cc(C#CCCCC#N)nn1 (single isomer, unassigned)"
result = "inactive"


###

Parameter: MIC. Scope: all listed entries.
# Test system: Bacillus subtilis
# experiment.summary: Antibacterial activity against Bacillus subtilis by almar blue dye reduction assay
# Format: functional
metric.name: MIC (µg/mL)

[[record]]
molecule = "CCOC(=O)C#Cc1cn([C@H](C)CC2CCC([C@@H](C)C(=O)N3CCN(CC4CCCO4)CC3)O2)nn1 (single isomer, unassigned)"
numeric_value = 240

[[record]]
molecule = "C[C@H](C[C@@H]1CC[C@H]([C@@H](C)C(=O)N2CCN(CC3CCCO3)CC2)O1)n1cc(C#CCOc2cccc(-c3ccccc3)c2)nn1 (some centres undefined)"
numeric_value = 880

[[record]]
molecule = "C[C@H](C[C@@H]1CC[C@H]([C@@H](C)C(=O)N2CCN(CC3CCCO3)CC2)O1)n1cc(C#Cc2ccc(-c3ccccc3)cc2)nn1 (some centres undefined)"
numeric_value = 560

[[record]]
molecule = "CCCCN(CC#Cc1cn([C@H](C)C[C@@H]2CC[C@H]([C@@H](C)C(=O)N(C)Cc3ccccc3)O2)nn1)CCCC"
numeric_value = 250

[[record]]
molecule = "CCN(CC)C(=O)[C@H](C)C1CCC(C[C@@H](C)n2cc(C#CCNC(=O)Nc3cccc(C)c3)nn2)O1 (single isomer, unassigned)"
numeric_value = 700

[[record]]
molecule = "CCCCN(CC#Cc1cn([C@H](C)C[C@@H]2CC[C@H]([C@@H](C)C(=O)N3CCN(CC4CCCO4)CC3)O2)nn1)CCCC (some centres undefined)"
numeric_value = 820

[[record]]
molecule = "C[C@H](C[C@@H]1CC[C@H]([C@@H](C)C(=O)N2CCN(CC3CCCO3)CC2)O1)n1cc(C#Cc2ccc(C(F)(F)F)cc2)nn1 (some centres undefined)"
numeric_value = 820

[[record]]
molecule = "C[C@H](C[C@@H]1CC[C@H]([C@@H](C)C(=O)N2CCN(CC3CCCO3)CC2)O1)n1cc(C#Cc2cccc3ccccc23)nn1 (some centres undefined)"
numeric_value = 790

[[record]]
molecule = "C[C@H](C[C@@H]1CC[C@H]([C@@H](C)C(=O)N(C)Cc2ccccc2)O1)n1cc(C#CCN(C)CCc2ccccc2)nn1"
numeric_value = 250

